Experiment: In vivo pharmacokinetics in male Sprague-Dawley rats
Design: species or system rat
Settings: rat, plasma, po, p.o. 3.0 mg/kg per title (dose row prints 10)
QUANTITY NAME: bioavailability (%)
# output: bare number, implied unit %

Need bioavailability, item [2H]C([2H])([2H])N(C([2H])([2H])[2H])C([2H])([2H])C([2H])([2H])c1c[nH]c2cccc(O)c12
155

---

Test: In vivo pharmacokinetics in male Sprague-Dawley rats
Set-up: species or system rat
Details: rat, plasma, sc, s.c. 0.3 mg/kg, read-out: AUC0-tlast
QUANTITY NAME: AUC(0-t) (ng·h/mL)
# output: bare number, implied unit ng·h/mL

Need AUC(0-t), item [2H]C([2H])([2H])N(C([2H])([2H])[2H])C([2H])([2H])C([2H])([2H])c1c[nH]c2cccc(O)c12 [Compound I-45]
32

---

Each entry below lists one item and its recorded EC50 value.
Target: human 5-HT2A (h5-HT2A) receptor (Homo sapiens (Human), UniProt P28223)
Experiment: FLIPR assay, human 5-HT2A receptor under agonist mode
Method: I. Assessment of the Activated Effect of Compounds of Formula I Targeting on Human 5-HT2A (h5-HT2A) Receptor Under Agonist Mode 1. Culture the cells in cell culture medium (DMEM containing 10% FBS, 1× penicillin-streptomycin 300 μg/ml G418 and 100 μg/ml hygromycin B) at 37° C., 5% (v/v) CO2. 2. […] i. The normalized fluorescence reading (RFU) is calculated as shown follow, while Fmax and Fmin stand for maximum and minimum of calcium signal during defined time window: RFU=Fmax−Fmin […]

Need EC50, item [2H]C([2H])([2H])N(C([2H])([2H])[2H])C([2H])([2H])C([2H])([2H])c1c[nH]c2cccc(F)c12
< 1000 nM

Need EC50, item [2H]C([2H])([2H])N(C([2H])([2H])[2H])C([2H])([2H])C([2H])([2H])c1c[nH]c2cccc(OP(=O)(O)O)c12
1000 to 10000 nM

Consider now this further compound.
Need EC50, item [2H]C([2H])([2H])N(C([2H])([2H])[2H])C([2H])([2H])C([2H])([2H])c1c[nH]c2cccc(OC)c12
< 1000 nM

---

Test: In vivo pharmacokinetics in male C57BL/6 mice
Design: species or system mouse
Settings: mouse, plasma, iv, i.v. 1 mg/kg
QUANTITY NAME: clearance
Output should be the measured figure followed by the unit it is expressed in.

Need clearance, item [2H]C([2H])([2H])N(C([2H])([2H])[2H])C([2H])([2H])C([2H])([2H])c1c[nH]c2cccc(O)c12
5.64 L/h/kg

---

Test: In vivo pharmacokinetics in male C57BL/6 mice
Set-up: species or system mouse
Settings: mouse, plasma, po, p.o. 10 mg/kg
QUANTITY NAME: AUC(0-inf) (ng·h/mL)
# output: bare number, implied unit ng·h/mL

Need AUC(0-inf), item [2H]C([2H])([2H])N(C([2H])([2H])[2H])C([2H])([2H])C([2H])([2H])c1c[nH]c2cccc(O)c12
795

---

Experiment: In vivo pharmacokinetics in male Sprague-Dawley rats
Design: species or system rat
Conditions: rat, plasma, sc, s.c. 0.3 mg/kg
QUANTITY NAME: Cmax (ng/mL)
# output: bare number, implied unit ng/mL

Need Cmax, item [2H]C([2H])([2H])N(C([2H])([2H])[2H])C([2H])([2H])C([2H])([2H])c1c[nH]c2cccc(O)c12 [Compound I-45]
30.2

---

Assay: Human liver microsomes stability with NADPH
Conditions: human, microsomes
QUANTITY NAME: half-life at 2 μM (h)
# output: bare number, implied unit h

Need half-life at 2 μM, item [2H]C([2H])([2H])N(C([2H])([2H])[2H])C([2H])([2H])C([2H])([2H])c1c[nH]c2cccc(O)c12
2.27

Others:
Need half-life at 2 μM, item CN(C)CCc1c[nH]c2cccc(O)c12 [Psilocin, 4-hydroxy-N,N-dimethyltryptamine, reference compound]
1.96

---

Test: In vivo pharmacokinetics in male Sprague-Dawley rats
Parameters: species or system rat
Settings: rat, plasma, sc, s.c. 0.3 mg/kg
QUANTITY NAME: bioavailability (%)
# output: bare number, implied unit %

Need bioavailability, item [2H]C([2H])([2H])N(C([2H])([2H])[2H])C([2H])([2H])C([2H])([2H])c1c[nH]c2cccc(O)c12
125

---

Assay: In vivo pharmacokinetics in male Sprague-Dawley rats
Set-up: species or system rat
Conditions: rat, plasma, po, p.o. 3.0 mg/kg per title (dose row prints 10), read-out: MRT0-inf
QUANTITY NAME: MRT inf (h)
# output: bare number, implied unit h

Need MRT inf, item [2H]C([2H])([2H])N(C([2H])([2H])[2H])C([2H])([2H])C([2H])([2H])c1c[nH]c2cccc(O)c12
2.77

---

Experiment: In vivo pharmacokinetics in male C57BL/6 mice
Parameters: species or system mouse
Conditions: mouse, plasma, iv, i.v. 1 mg/kg, read-out: MRT0-inf
QUANTITY NAME: MRT inf (h)
# output: bare number, implied unit h

Need MRT inf, item [2H]C([2H])([2H])N(C([2H])([2H])[2H])C([2H])([2H])C([2H])([2H])c1c[nH]c2cccc(O)c12 [Compound I-45]
1.49

---

Experiment: Rat liver microsomes stability with NADPH
Settings: rat, microsomes
Each entry below lists one item and its recorded half-life at 2 μM value.

Need half-life at 2 μM, item CN(C)CCc1c[nH]c2cccc(O)c12 [Psilocin, 4-hydroxy-N,N-dimethyltryptamine, reference compound]
89 min

Consider now this further molecule.
Need half-life at 2 μM, item [2H]C([2H])([2H])N(C([2H])([2H])[2H])C([2H])([2H])C([2H])([2H])c1c[nH]c2cccc(O)c12 [Compound I-45]
12.2 min

---

Test: In vivo pharmacokinetics in male C57BL/6 mice
Design: species or system mouse
Settings: mouse, plasma, po, p.o. 10 mg/kg
Description: Male C57BL/6 mice (25-30 g) and male Sprague-Dawley rats (250-325 g) from Charles River Labs were acclimatized for a minimum of 5 days prior to dosing. Body weights were recorded on the day of dosing. Animals dosed p.o. were deprived of food overnight and fed ˜2 h following dosing. Formulations were administered intravenously (i.v.) via the tail vein or orally (p.o.) by gavage with disposable feeding needles. Serial blood samples were collected via tail snip. […]
QUANTITY NAME: Cmax (ng/mL)
# output: bare number, implied unit ng/mL

Need Cmax, item [2H]C([2H])([2H])N(C([2H])([2H])[2H])C([2H])([2H])C([2H])([2H])c1c[nH]c2cccc(O)c12
704

---

Experiment: In vivo pharmacokinetics in male C57BL/6 mice
Parameters: species or system mouse
Conditions: mouse, plasma, po, p.o. 10 mg/kg, read-out: MRT0-inf
Method: Male C57BL/6 mice (25-30 g) and male Sprague-Dawley rats (250-325 g) from Charles River Labs were acclimatized for a minimum of 5 days prior to dosing. Body weights were recorded on the day of dosing. Animals dosed p.o. were deprived of food overnight and fed ˜2 h following dosing. Formulations were administered intravenously (i.v.) via the tail vein or orally (p.o.) by gavage with disposable feeding needles. Serial blood samples were collected via tail snip. […]
QUANTITY NAME: MRT inf (h)
# output: bare number, implied unit h

Need MRT inf, item [2H]C([2H])([2H])N(C([2H])([2H])[2H])C([2H])([2H])C([2H])([2H])c1c[nH]c2cccc(O)c12
2

---

Experiment: In vivo pharmacokinetics in male Sprague-Dawley rats
Set-up: species or system rat
Details: rat, plasma, sc, s.c. 0.3 mg/kg, read-out: AUC0-inf
QUANTITY NAME: AUC(0-inf)
Output should be the measured figure followed by the unit it is expressed in.

Need AUC(0-inf), item [2H]C([2H])([2H])N(C([2H])([2H])[2H])C([2H])([2H])C([2H])([2H])c1c[nH]c2cccc(O)c12
35.9 ng·h/mL

---

Test: In vivo pharmacokinetics in male Sprague-Dawley rats
Parameters: species or system rat
Settings: rat, plasma, sc, s.c. 0.3 mg/kg
QUANTITY NAME: Tmax (min)
# output: bare number, implied unit min

Need Tmax, item [2H]C([2H])([2H])N(C([2H])([2H])[2H])C([2H])([2H])C([2H])([2H])c1c[nH]c2cccc(O)c12
16.7

---

Experiment: In vivo pharmacokinetics in male Sprague-Dawley rats
Set-up: species or system rat
Conditions: rat, plasma, sc, s.c. 0.3 mg/kg, read-out: MRT0-inf
QUANTITY NAME: MRT inf
Output should be the measured figure followed by the unit it is expressed in.

Need MRT inf, item [2H]C([2H])([2H])N(C([2H])([2H])[2H])C([2H])([2H])C([2H])([2H])c1c[nH]c2cccc(O)c12
59.5 min
